- method.summary: Maximal solubility of the synthetic peptides in water and in DMSO (sheet Peptide_mixes)
- Format: physicochemical
- assay.conditions: in water; number before the bracket in the cell
No end group written: not given here.
observable: max solve water (mg/mL)
Kindly provide the numeric value in mg/mL only, without the unit symbol.

Completed entries (count: 3):
In [3]: df
Out[3]:
                      substance       observable  experimental_value
0      MPEQDANPQTRFD-NH2 [RFa2]  max solve water                   5
1  KGIKQEEIQPGNMKVWSDPF [PNX20]  max solve water                   5
2          QPGNMKVWSDPF [PNX12]  max solve water                   0

Enquiry: // lookup max solve water for GPRGGRSYDGPRG-NH2 [PRGa4]
Return: 5

----------
The reader will find reported max solve water values listed item by item below.
- method.summary: Maximal solubility of the synthetic peptides in water and in DMSO (sheet Peptide_mixes)
- Assay type: physicochemical
- assay.conditions: in water; number before the bracket in the cell
- Text: Supplement elife-90674-supp3.xlsx, sheet "Peptide_mixes"
Residues, ends and D or L forms follow the SMILES beside them.
Entry rule: numbers only, all in mg/mL.

compound	max solve water / mg/mL
CC[C@H](C)[C@H](NC(=O)[C@@H]1CCCN1C(=O)[C@@H](NC(=O)[C@H](CCCNC(=N)N)NC(=O)[C@H](Cc1ccccc1)NC(=O)[C@@H]1CCCN1C(=O)[C@@H]1CCCN1C(=O)[C@@H]1CCC(=O)N1)[C@@H](C)CC)C(N)=O [pIPIa] (HELM PEPTIDE1{[Glp].P.P.F.R.I.P.I.[am]}$$$$V2.0)	0

Here is another compound to look at.
Enquiry: Entry N=C(N)NCCC[C@H](NC(=O)CNC(=O)[C@@H]1CCC(=O)N1)C(=O)N[C@@H](Cc1ccccc1)C(N)=O [QGRFa] (HELM PEPTIDE1{[Glp].G.R.F.[am]}$$$$V2.0) : reported max solve water = ?
Return: 5

----------
- method.summary: Maximal solubility of the synthetic peptides in water and in DMSO (sheet Peptide_mixes)
- Assay type: physicochemical
- assay.conditions: in DMSO; number in brackets in the cell
Residues, ends and D or L forms follow the SMILES beside them.
Below: a set of entries, each annotated with reported max solve (DMSO).
Please give a number only; it is taken to be in mg/mL.

compound	experimental.value
CSCC[C@H](NC(=O)[C@H](C)NC(=O)[C@@H]1CCC(=O)N1)C(=O)N[C@@H](CCC(N)=O)C(=O)N[C@@H](Cc1c[nH]c2ccccc12)C(=O)NCC(=O)N[C@@H](Cc1c[nH]cn1)C(=O)N[C@@H](CCCCN)C(=O)NCC(=O)N[C@@H](Cc1c[nH]c2ccccc12)C(=O)N[C@@H](C)C(=O)O [GWA1] (HELM PEPTIDE1{[Glp].A.M.Q.W.G.H.K.G.W.A}$$$$V2.0)	10
CSCC[C@H](NC(=O)[C@H](CC(N)=O)NC(=O)[C@@H]1CCCN1C(=O)[C@H](CCSC)NC(=O)[C@@H]1CCC(=O)N1)C(=O)N[C@H](C(=O)N1CCC[C@H]1C(=O)N[C@@H](Cc1ccccc1)C(=O)N[C@@H](Cc1c[nH]cn1)C(N)=O)C(C)C [PFHa] (HELM PEPTIDE1{[Glp].M.P.N.M.V.P.F.H.[am]}$$$$V2.0)	10
CC(C)C[C@@H]1NC(=O)CNC(=O)[C@@H]2CCCN2C(=O)[C@@H]2CCCN2C(=O)[C@@H](NC(=O)[C@@H]2CCC(=O)N2)CSSC[C@@H](C(=O)O)NC(=O)CNC(=O)[C@H](Cc2c[nH]c3ccccc23)NC1=O [GLWGcc] (HELM PEPTIDE1{[Glp].C.P.P.G.L.W.G.C}$PEPTIDE1,PEPTIDE1,2:R3-9:R3$$$V2.0)	10

Enquiry: Could you share which max solve (DMSO) value was measured for CC(C)C[C@H](NC(=O)[C@H](Cc1ccc(O)cc1)NC(=O)[C@@H]1CCC(=O)N1)C(=O)N[C@@H](CC(=O)O)C(=O)N1CCC[C@H]1C(=O)N[C@@H](CCCNC(=N)N)C(=O)N1CCC[C@H]1C(N)=O [RHa5] (HELM PEPTIDE1{[Glp].Y.L.D.P.R.P.[am]}$$$$V2.0) ?
Return: 15

----------
- method.summary: Maximal solubility of the synthetic peptides in water and in DMSO (sheet Peptide_mixes)
- Type: physicochemical
- assay.conditions: in DMSO; number in brackets in the cell
No end group written: not given here.
# max solve (DMSO) listing for each entry below
Give just the numeric value; mg/mL need not be written.

Solved cases (5 shown):
>>> print(df.to_string())
                      substance  experimental_value
0  KGIKQEEIQPGNMKVWSDPF [PNX20]                  10
1             TPPSNI-NH2 [SNIa]                   5
2                 DSSPPQW [QW2]                  10
3      MPEQDANPQTRFD-NH2 [RFa2]                  10
4         IPPQGFRFSQW-NH2 [QWa]                  10

Enquiry: Need max solve (DMSO), item EIQPGNMKVWSDPF [PNX14]
Return: 10

----------
Reported max solve (DMSO) values for a set of molecules
- method.summary: Maximal solubility of the synthetic peptides in water and in DMSO (sheet Peptide_mixes)
- Format: physicochemical
- assay.conditions: in DMSO; number in brackets in the cell
Residues, ends and D or L forms follow the SMILES beside them.
Give the value in mg/mL but do not write mg/mL after it.

molecule	max solve (DMSO) / mg/mL
CC(C)[C@H](NC(=O)[C@H](CCCNC(=N)N)NC(=O)[C@H](Cc1ccc(O)cc1)NC(=O)[C@@H](N)Cc1ccccc1)C(N)=O [FYRVa] (H-FYRV-NH2)	10
N=C(N)NCCC[C@H](NC(=O)CNC(=O)[C@@H]1CCC(=O)N1)C(=O)N[C@@H](Cc1ccccc1)C(N)=O [QGRFa] (HELM PEPTIDE1{[Glp].G.R.F.[am]}$$$$V2.0)	10

Enquiry: What value of measured max solve (DMSO) is listed for CC(C)C[C@H](NC(=O)CNC(=O)[C@@H]1CCC(=O)N1)C(=O)N[C@@H](CCCNC(=N)N)C(=O)N[C@@H](Cc1c[nH]c2ccccc12)C(N)=O [LRWa1] (HELM PEPTIDE1{[Glp].G.L.R.W.[am]}$$$$V2.0) ?
Return: 5

Enquiry: Ok, now CC[C@H](C)[C@H](NC(=O)[C@@H]1CCCN1C(=O)[C@@H](NC(=O)[C@H](CCCNC(=N)N)NC(=O)[C@H](Cc1ccccc1)NC(=O)[C@@H]1CCCN1C(=O)[C@@H]1CCCN1C(=O)[C@@H]1CCC(=O)N1)[C@@H](C)CC)C(N)=O [pIPIa] (HELM PEPTIDE1{[Glp].P.P.F.R.I.P.I.[am]}$$$$V2.0)
Return: 10

Enquiry: Query N=C(N)NCCC[C@H](NC(=O)CNC(=O)[C@H](CCC(N)=O)NC(=O)[C@H](CC(=O)O)NC(=O)[C@H](CCC(=O)O)NC(=O)[C@H](CCCNC(=N)N)NC(=O)CNC(=O)[C@H](Cc1ccccc1)NC(=O)[C@H](CCCNC(=N)N)NC(=O)CNC(=O)[C@@H]1CCC(=O)N1)C(=O)N[C@@H](Cc1ccccc1)C(N)=O [RFa1] (HELM PEPTIDE1{[Glp].G.R.F.G.R.E.D.Q.G.R.F.[am]}$$$$V2.0) next
Return: 10

Enquiry: Moving on to CC(C)C[C@H](NC(=O)[C@H](Cc1c[nH]cn1)NC(=O)[C@H](CO)NC(=O)[C@H](CC(C)C)NC(=O)[C@@H]1CCCN1C(=O)[C@@H]1CCCN1C(=O)[C@@H]1CCC(=O)N1)C(=O)N[C@@H](CO)C(N)=O [HLSa] (HELM PEPTIDE1{[Glp].P.P.L.S.H.L.S.[am]}$$$$V2.0)
Return: 5

----------
- method.summary: Maximal solubility of the synthetic peptides in water and in DMSO (sheet Peptide_mixes)
- Format: physicochemical
- assay.conditions: in DMSO; number in brackets in the cell
No end group written: not given here.
Listed substances paired with reported max solve (DMSO)

Known max solve (DMSO) results, listed for orientation:
In [3]: df
Out[3]:
                     substance  experimental_value
0        SPWSCSLRP-NH2 [LRPa1]       10 (10) mg/ml
1       GPPPIYLPVRP-NH2 [RHa3]       10 (10) mg/ml
2       GPPMIKIPVRH-NH2 [VRHa]       10 (10) mg/ml
3   GPRGGRATEFGPRG-NH2 [PRGa3]       10 (10) mg/ml
4  GPRGGREVNLEGPRG-NH2 [PRGa2]         5 (5) mg/ml
5         SPKPPGLW-NH2 [GLWa5]       10 (10) mg/ml

Enquiry: Recorded max solve (DMSO) of APRGGRSLLDLLAAPRG-NH2 [PRGa1] , please.
Return: 10 (10) mg/ml

Enquiry: Now the same for GPPQGLRW-NH2 [LRWa3]
Return: 5 (5) mg/ml
